Molecular target: T1, Recombinant Human PD-L1-TVMV-His (human, UniProt Q9NZQ7 19-239)
T1 construct: expressed in HEK293T cells; also called PD-L1-His; hPD-L1(19-239)-TVMV-His
T1 sequence (Q9NZQ7 other isoform, or with tags, fused parts or gaps limits assumed): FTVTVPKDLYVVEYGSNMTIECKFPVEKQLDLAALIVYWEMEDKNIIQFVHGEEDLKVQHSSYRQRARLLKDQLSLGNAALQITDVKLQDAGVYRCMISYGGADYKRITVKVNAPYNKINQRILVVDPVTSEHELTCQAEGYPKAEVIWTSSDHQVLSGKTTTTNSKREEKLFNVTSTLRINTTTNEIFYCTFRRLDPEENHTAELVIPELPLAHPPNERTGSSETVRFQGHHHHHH
Assay: HTRF vs PD-1-Ig; B = IC50 0.01-0.099 µM
Starred links: 1 amine or outer side, 2 acyl side, 3 side chain; linkers in the order of their positions; H or OH if unused. Positions of bridges follow the written chain, without caps; N, C: chain ends. Non-standard residues stand in square brackets, D forms with d. Groups on a side chain read outwards from the residue. Primed or numbered codes have the meaning given here. No end group written: not given here. *: point of attachment. Pra′ = propargylglycine (built in as LPH), clicked to a 1-substituted triazol-4-yl-alanine, O=C([C@H](Cc1cn([*:3])nn1)N[*:1])[*:2]; X1 = (S)‑3‑carboxy‑3‑(15-carboxypentadecanoylamino)propyl, O=C(O)CCCCCCCCCCCCCCC(=O)N[C@@H](CC*)C(=O)O; Phe(4-OMe)″ = p-methoxyphenylalanine, COc1ccc(C[C@H](N[*:1])C(=O)[*:2])cc1; triazole = 1,2,3-triazole formed by click of the Pra alkyne with the azide; Trp(1-CH2CO) = O=C([C@H](Cc1cn(CC(=O)[*:3])c2ccccc12)N[*:1])[*:2]; Phe(3,4,5-F3) = N[C@@H](Cc1cc(F)c(F)c(F)c1)C(=O)O; C18 diacid = O=C(O)CCCCCCCCCCCCCCCCC(=O)*; γGlu = O=C(O)[C@H](CCC(=O)[*:2])N[*:1]; Hyp = O=C(O)[C@@H]1C[C@@H](O)CN1; NMeF = CN[C@@H](Cc1ccccc1)C(=O)O; dHyp = O=C(O)[C@H]1C[C@H](O)CN1; NMeNle = CCCC[C@H](NC)C(=O)O; Pip = O=C(O)[C@@H]1CCCCN1; NMeA = CN[C@@H](C)C(=O)O; Dab = NCC[C@H](N)C(=O)O
# Lookup of reported IC50 keyed by entry

Solved cases below.
Binder	IC50
{CH2CO}-[Phe(4-OMe)″][Pip]NPHL[Hyp]W[Dab][Trp(1-CH2CO)][NMeNle][NMeNle]LCG[Dab]([γGlu-C18 diacid]) (thioether N-14 (inferred)) [Example 13151]	10 to 99 nM
{CH2CO}-[Phe(3,4,5-F3)][NMeF][NMeNle][dHyp]DV[NMeF]D[dP]WYLCG[Pra′]([triazole-X1]) (thioether N-13) [Example 14074]	10 to 99 nM
{CH2CO}-Y[NMeA]DPHK[Hyp]WK[Trp(1-CH2CO)][NMeNle][NMeNle]ECG[Pra′]([triazole-X1]) (thioether N-14) [Example 14078]	10 to 99 nM

Please find the next binder below.
Sure, the documented IC50 for {CH2CO}-Y[NMeA]DPHQ[Hyp]WSW[NMeNle][NMeNle]ECG[Pra′]([triazole-X1])G (thioether N-14) [Example 14069] is 10 to 99 nM
